molecular target: recombinant human ACC2 (Homo sapiens, UniProt O00763); construct: a cDNA encoding human ACC2 (27-2458) was cloned from human kidney cDNA library (Clontech); His-tag (N); made in house; host or cells: Sf-9 insect cells (Bac-to-Bac baculovirus); assay: Measurement of inhibitory activity on human ACC2 (MALDI-TOF MS, acetyl CoA to malonyl CoA conversion); type: biochemical; details: inhibition activity on human ACC2, Table 84; read-out: IC50
Sequence (O00763 27-2458): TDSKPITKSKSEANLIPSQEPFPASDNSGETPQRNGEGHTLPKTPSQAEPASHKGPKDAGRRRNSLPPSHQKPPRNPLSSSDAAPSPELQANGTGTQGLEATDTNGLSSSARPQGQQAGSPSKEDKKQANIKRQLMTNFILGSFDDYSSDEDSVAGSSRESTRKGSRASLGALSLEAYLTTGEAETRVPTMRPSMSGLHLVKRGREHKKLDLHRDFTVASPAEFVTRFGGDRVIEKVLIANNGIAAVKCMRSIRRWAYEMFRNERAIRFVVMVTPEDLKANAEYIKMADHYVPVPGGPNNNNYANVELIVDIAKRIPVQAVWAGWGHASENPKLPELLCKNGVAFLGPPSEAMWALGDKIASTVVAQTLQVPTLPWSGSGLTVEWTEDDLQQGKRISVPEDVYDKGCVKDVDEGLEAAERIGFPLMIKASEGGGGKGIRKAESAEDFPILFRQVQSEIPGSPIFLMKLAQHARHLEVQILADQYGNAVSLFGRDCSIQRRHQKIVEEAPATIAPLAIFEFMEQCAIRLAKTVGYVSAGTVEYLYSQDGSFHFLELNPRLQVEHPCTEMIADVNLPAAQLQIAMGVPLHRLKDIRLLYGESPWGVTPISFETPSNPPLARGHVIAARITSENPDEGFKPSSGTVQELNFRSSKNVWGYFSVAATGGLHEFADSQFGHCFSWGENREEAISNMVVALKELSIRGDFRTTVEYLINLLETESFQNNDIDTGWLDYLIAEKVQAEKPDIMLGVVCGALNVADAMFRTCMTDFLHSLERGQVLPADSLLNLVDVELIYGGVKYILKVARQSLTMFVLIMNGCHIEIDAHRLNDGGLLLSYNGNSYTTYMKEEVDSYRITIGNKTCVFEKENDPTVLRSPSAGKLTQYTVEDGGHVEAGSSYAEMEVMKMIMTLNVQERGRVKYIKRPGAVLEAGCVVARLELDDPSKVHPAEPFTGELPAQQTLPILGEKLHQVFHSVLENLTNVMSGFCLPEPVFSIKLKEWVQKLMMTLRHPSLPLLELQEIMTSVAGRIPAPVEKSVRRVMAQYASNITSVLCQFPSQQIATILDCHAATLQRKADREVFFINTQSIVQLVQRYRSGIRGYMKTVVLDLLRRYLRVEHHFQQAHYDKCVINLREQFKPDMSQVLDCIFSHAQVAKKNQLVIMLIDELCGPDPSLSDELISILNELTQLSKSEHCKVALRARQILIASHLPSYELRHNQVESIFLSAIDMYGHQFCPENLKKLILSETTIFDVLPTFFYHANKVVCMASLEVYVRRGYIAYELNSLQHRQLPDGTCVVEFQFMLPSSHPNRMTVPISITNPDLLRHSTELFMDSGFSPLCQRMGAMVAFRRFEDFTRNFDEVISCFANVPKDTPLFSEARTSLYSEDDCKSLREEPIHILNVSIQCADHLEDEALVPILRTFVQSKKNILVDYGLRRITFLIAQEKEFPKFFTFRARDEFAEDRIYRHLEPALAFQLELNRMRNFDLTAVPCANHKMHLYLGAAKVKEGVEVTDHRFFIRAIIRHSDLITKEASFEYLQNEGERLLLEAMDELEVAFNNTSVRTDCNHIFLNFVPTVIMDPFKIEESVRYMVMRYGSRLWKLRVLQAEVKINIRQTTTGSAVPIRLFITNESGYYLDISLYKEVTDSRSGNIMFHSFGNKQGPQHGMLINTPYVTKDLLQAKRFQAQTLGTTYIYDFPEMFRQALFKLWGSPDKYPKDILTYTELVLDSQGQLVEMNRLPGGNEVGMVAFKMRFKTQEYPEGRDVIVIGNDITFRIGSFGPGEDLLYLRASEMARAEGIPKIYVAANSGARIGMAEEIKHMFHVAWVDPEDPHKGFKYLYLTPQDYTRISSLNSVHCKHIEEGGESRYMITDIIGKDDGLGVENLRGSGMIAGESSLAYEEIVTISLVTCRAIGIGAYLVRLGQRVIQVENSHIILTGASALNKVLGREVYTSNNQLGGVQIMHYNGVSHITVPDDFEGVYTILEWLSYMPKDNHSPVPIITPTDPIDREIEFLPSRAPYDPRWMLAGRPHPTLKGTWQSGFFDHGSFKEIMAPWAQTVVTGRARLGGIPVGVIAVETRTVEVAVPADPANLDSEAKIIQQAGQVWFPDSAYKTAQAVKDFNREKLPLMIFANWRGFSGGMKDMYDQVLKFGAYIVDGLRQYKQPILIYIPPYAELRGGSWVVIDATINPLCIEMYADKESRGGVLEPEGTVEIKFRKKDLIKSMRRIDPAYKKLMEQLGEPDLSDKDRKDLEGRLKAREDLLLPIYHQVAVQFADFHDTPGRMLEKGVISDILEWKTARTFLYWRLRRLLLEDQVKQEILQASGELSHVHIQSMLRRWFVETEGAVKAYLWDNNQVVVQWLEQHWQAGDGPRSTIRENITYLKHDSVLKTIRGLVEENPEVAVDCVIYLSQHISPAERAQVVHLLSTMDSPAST
pIC50: −log10 of the molar value.
Each entry gets F if its pIC50 stays under 7, and T if its pIC50 is 7 or above.

CC(=O)N[C@@H](C)/C=C/c1cnc(Oc2ccc(C(C)(C)C)cc2Cl)cn1: T
CC(=O)N[C@@H](C)/C=C/c1ccc(Oc2ccc3c(c2)CCCO3)nc1: T
CCc1nc2cc(Cl)c(Oc3ccc(/C=C/[C@H](C)NC(C)=O)cn3)cc2s1: T

Is it the case that CCCc1ccc(Oc2ccc(/C=C/[C@H](C)NC(C)=O)nc2)c(Cl)c1 has pIC50 reaching or exceeding 7?
F
